Recorded values, source paper PMC4965013.

As shown below, each of these compounds has a reported fumarate value.
system: P. falciparum 3D7 trophozoites; experiment: Metabolomic fingerprint profiling LC-MS; format: cell-based, Plasmodium falciparum; conditions: metabolite fumarate; S2 Table Metabolomics, change in metabolite level after compound treatment

Examples with answers:
COMPOUND	MEAS_VALUE
Cc1cc(Nc2ccc(C)c(Cl)c2)n2nc(C(F)(F)F)nc2n1	-0.3892
CCOC(=O)c1cn(CC)c2cc(N3CCCCC3)c(F)cc2c1=O	-0.2241
CCC(c1ccccc1)c1nn2c(-c3cccs3)nnc2s1 (centres unmarked)	0.2534
CCOC(=O)c1cnc2c(C)cc(C)cc2c1Nc1ccc(OC)c(OC)c1	-0.9618
COc1ccc2c(c1)OC(O)(C(F)(F)C(F)(F)F)CC2=O (centres unmarked)	-0.2064

### Prompt Write down fumarate measured for item Cc1ccc(-c2cc3nc4c(c(O)n3n2)CCCC4)cc1
### Response 0.7624

### Prompt Write down fumarate measured for item CN(C)CCCNc1c2ccccc2nc2ccccc12
### Response 0.04552

### Prompt Write down fumarate measured for item CCN1CCN(Cc2ccc(NC(=O)c3cc4ccc5cccnc5c4[nH]3)cc2)CC1
### Response -0.1605

### Prompt Write down fumarate measured for item CCOC(=O)c1ccc2nc(-c3ccccc3)cc(O)c2c1
### Response 0.4222

### Prompt Write down fumarate measured for item Fc1ccc2[nH]c3c(NCCCN4CCOCC4)ncnc3c2c1
### Response -0.6533

### Prompt Write down fumarate measured for item Cc1cc(Nc2ccc3ccccc3c2)n2ncnc2n1
### Response -1.091

### Prompt Write down fumarate measured for item COc1ccc(C(=O)Nc2nonc2-c2ccc(OC)c(OC)c2)cc1Cl
### Response 0.5595

### Prompt Write down fumarate measured for item CSc1ccccc1C(=O)Nc1nc(-c2ccccn2)cs1
### Response 0.07419

### Prompt Write down fumarate measured for item CC(C)(C)c1ccc(O)c(CNC2CCCCC2)c1
### Response -2.071

### Prompt Write down fumarate measured for item CSC1=NC(=Nc2c(C)cccc2C)C2(CCC(C(C)(C)C)CC2)N1c1ccc(Cl)cc1 (centres unmarked)
### Response 0.4042

### Prompt Write down fumarate measured for item COc1ccccc1N=C1C(=O)c2ccccc2C(O)=C1N1CCCCC1
### Response 0.1969

### Prompt Write down fumarate measured for item O=C(NCC(c1ccsc1)N1CCCCCC1)c1ccc(C(F)(F)F)cc1 (centres unmarked)
### Response -0.2118

### Prompt Write down fumarate measured for item Cc1ccc(N2C3c4ccccc4N(S(=O)(=O)c4ccc(C)cc4)C2c2ccccc2N3S(=O)(=O)c2ccc(C)cc2)cc1
### Response 0.3202

### Prompt Write down fumarate measured for item CCOC(=O)c1cnc2ccc(CC)cc2c1O
### Response 0.4728

### Prompt Write down fumarate measured for item Cc1cc(C)cc(Nc2cc(C)nc3nc(C(F)(F)F)nn23)c1
### Response -0.9126

* * *

test system: P. falciparum 3D7 trophozoites; test: Metabolomic fingerprint profiling LC-MS; assay type: cell-based, Plasmodium falciparum; settings: metabolite UDP; S2 Table Metabolomics, change in metabolite level after compound treatment
READOUT_LABEL: UDP

Examples with answers:
MOLECULE	MEAS_VALUE
c1ccc2cc3c(Nc4ccc(N5CCOCC5)cc4)ccnc3cc2c1	0.1461
Oc1ccccc1CNCC12CC3CC(CC(C3)C1)C2	-0.3321

### Prompt Write down UDP measured for item CCOc1cc2c(cc1OCC)C(c1cc(OC)c(O)cc1Cl)NCC2 (stereo not drawn)
### Response 1.214

### Prompt Write down UDP measured for item CCCN(CCC)CC(O)COc1ccccc1C(=O)Nc1ccccc1 (stereo not drawn)
### Response 0.8505

### Prompt Write down UDP measured for item Fc1ccc2[nH]c3c(NCCCN4CCOCC4)ncnc3c2c1
### Response 0.8844

### Prompt Write down UDP measured for item O=C(NCC(c1ccsc1)N1CCCCCC1)c1ccc(C(F)(F)F)cc1 (stereo not drawn)
### Response -0.327

### Prompt Write down UDP measured for item CN1CCN(c2ccc(Nc3c4ccccc4nc4ccccc34)cc2)CC1
### Response 0.649

### Prompt Write down UDP measured for item Cc1cc(Nc2ccc(C)c(Cl)c2)n2nc(C(F)(F)F)nc2n1
### Response -1.835

### Prompt Write down UDP measured for item CC1CCN(Cc2ccc(NC(=O)c3cc4ccc5cccnc5c4[nH]3)cc2)CC1
### Response 0.6579

* * *

tested on: U87-CD4-CCR5 or U87-CD4-CXCR4 cells; test: U87 cell viability MTT; assay type: cell-based; conditions: 5µM
Quick rule for you: U87 % cell death rep3 (R5 P24 NO Washout expt) under 40% gets Y, anything else gets N.

COMPOUND	LABEL_CLASS
CCN1CCN(c2cc(C)c3cc(NC(=O)c4ccc(OC)c(OC)c4)ccc3n2)CC1 [MMV019074]	Y
COc1cc2cc(C(=O)Nc3ccccc3)c(N)nc2cc1OC [MMV006767]	N
CCN(CC)c1cc(C)c2cc(NC(=O)c3cccc(OC)c3)ccc2n1 [MMV000498]	Y

Then there is this compound:
### Prompt Threshold test, U87 % cell death rep3 (R5 P24 NO Washout expt) < 40%: CCOC(=O)c1cnc2ccc(OC)cc2c1NCc1ccccc1 [MMV665813]
### Response Y

* * *

tested on: P. falciparum 3D7 trophozoites; test: Metabolomic fingerprint profiling LC-MS; type: cell-based, Plasmodium falciparum; conditions: metabolite inosine; S2 Table Metabolomics, change in metabolite level after compound treatment
Quick rule for you: inosine under -0.3 gets satisfied, anything else gets not satisfied.

Examples from the recorded data:
MOLECULE	TEST_TARGET	LABEL_CLASS
COc1ccc(C2=C(c3ccc(OC)cc3)C3(c4ccccc4)C(=O)C2(c2ccccc2)C2C(=O)N(c4ccc(C)cc4)C(=O)C23)cc1 (stereo not drawn) [MMV666101]	P. falciparum 3D7 trophozoites	satisfied
Cc1cc(NC(=O)C2c3ccccc3C(=O)N(CC(C)C)C2c2cccs2)no1 (stereo not drawn) [MMV006429]	P. falciparum 3D7 trophozoites	not satisfied
CCOC(=O)c1c(NC(=O)c2ccccc2)sc2c(O)c(CN(CC)CC)ccc12 [MMV665831]	P. falciparum 3D7 trophozoites	satisfied
Cc1cc(C)c2c(c1)OCN(Cc1ccccc1Cl)C2 [MMV006558]	P. falciparum 3D7 trophozoites	satisfied
CN1CCN(c2ccc(Nc3c4ccccc4nc4ccccc34)cc2)CC1 [MMV006172]	P. falciparum 3D7 trophozoites	not satisfied

### Prompt Threshold test, inosine < -0.3: c1ccc2cc3c(Nc4ccc(N5CCOCC5)cc4)ccnc3cc2c1 [MMV006861]
### Response not satisfied

### Prompt Threshold test, inosine < -0.3: CCCN(CCC)CC(O)COc1ccccc1C(=O)Nc1ccccc1 (stereo not drawn) [MMV006455]
### Response not satisfied

### Prompt Threshold test, inosine < -0.3: Oc1ccccc1CNCC12CC3CC(CC(C3)C1)C2 [MMV020788]
### Response satisfied

### Prompt Threshold test, inosine < -0.3: COc1ccc(-n2ccnc2SCC(=O)Nc2cc(C)ccc2C)c(OC)c1 [MMV019258]
### Response not satisfied

### Prompt Threshold test, inosine < -0.3: Cc1cc(Nc2ccc3ccccc3c2)n2ncnc2n1 [MMV011099]
### Response satisfied

* * *

test system: P. falciparum 3D7 trophozoites; assay: Metabolomic fingerprint profiling LC-MS; format: cell-based, Plasmodium falciparum; details: metabolite dATP, S2 Table Metabolomics
READOUT_LABEL: dATP
Lab note: write the figure by itself, no unit.

COMPOUND	READOUT_LABEL	MEAS_VALUE
CC1CN(C(=O)c2sc3ccccc3c2Cl)CC(C)O1 (stereo not shown) [MMV020492]	dATP	-0.009271

### Prompt State measured dATP of the compound COc1ccccc1CNC(=O)CCn1c(=O)[nH]c2ccsc2c1=O [MMV019066] with P. falciparum 3D7 trophozoites.
### Response -0.07834

### Prompt State measured dATP of the compound COc1ccc(-n2ccnc2SCC(=O)Nc2cc(C)ccc2C)c(OC)c1 [MMV019258] with P. falciparum 3D7 trophozoites.
### Response 0.5274

### Prompt State measured dATP of the compound Cc1cc(NC(=O)C2c3ccccc3C(=O)N(CC(C)C)C2c2cccs2)no1 (stereo not shown) [MMV006429] with P. falciparum 3D7 trophozoites.
### Response 0.0138

* * *

system: P. falciparum; test: EC50 listed in S2 Table Metabolomics (used to set the concentration tested); type: cell-based; details: Plasmodium falciparum; EC50 used for Factor_XEC50 in metabolomics; read-out: EC50_nM
READOUT_LABEL: EC50 (µM)
# number only, unit µM dropped from output

Examples with answers:
MOLECULE	READOUT_LABEL	UNIT_ANNOTATION	MEAS_VALUE
Cc1ccc(-c2cc3nc4c(c(O)n3n2)CCCC4)cc1 [MMV006937]	EC50	µM	0.396
O=C1C(O)=C([C@H]2CC[C@H](c3ccc(Cl)cc3)CC2)C(=O)c2ccccc21 [Atovaquone, reference compound]	EC50	µM	0.001
CC1CN(C(=O)c2sc3ccccc3c2Cl)CC(C)O1 (stereo not drawn) [MMV020492]	EC50	µM	0.0255
CNCCCNc1ccnc2cc(Cl)ccc12 [MMV020500]	EC50	µM	0.0822
COc1cccc(C=Cc2nc(=O)c3ccccc3o2)c1OC [MMV666693]	EC50	µM	0.0238

### Prompt Write down EC50 measured for item COc1ccc2c(c1)OC(O)(C(F)(F)C(F)(F)F)CC2=O (stereo not drawn) [MMV007839]
### Response 0.283

### Prompt Write down EC50 measured for item Cc1cc(Nc2ccc(C)c(Cl)c2)n2nc(C(F)(F)F)nc2n1 [MMV665874]
### Response 0.00671

### Prompt Write down EC50 measured for item CCOC(=O)C1=C(c2ccccc2)N=c2sc(=Cc3cc(C)n(-c4ccc(F)cc4)c3C)c(=O)n2C1c1cccc(OC)c1OC (stereo not drawn) [MMV666601]
### Response 0.154

### Prompt Write down EC50 measured for item CCCc1cc(O)c2c3c(c(=O)oc2c1)CN(C)CC3 [MMV665841]
### Response 0.146
